Test: recombinant barcode read abundance after kanamycin selection (control-corrected) (log10(CPM+1)); higher = more efficient recombination; sequences stand for … in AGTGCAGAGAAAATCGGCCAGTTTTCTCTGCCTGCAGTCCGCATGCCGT…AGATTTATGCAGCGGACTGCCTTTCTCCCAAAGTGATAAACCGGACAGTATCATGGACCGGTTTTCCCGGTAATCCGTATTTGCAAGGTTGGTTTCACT; site = the 11-nt target;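 note: IS621 recombinase and bridge RNA in Escherichia coli cells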
Listing of entries alongside the reported recombinant barcode read abundance (log10).
The answer should be a number; do not append a unit.

Consider the reported recombinant barcode read abundance (log10) for these sequences:
[[record]]
sequence_chain = "TGGACTTCTTGGGTTCTAACCTGTTGCTG (site TGGACTTCTCA)"
value = 0.0836

[[record]]
sequence_chain = "CCACCGTCTTGGGTTCTAACCTGTTGCCT (site CCACCGTCTAG)"
value = 0.156

[[record]]
sequence_chain = "CTCGACACTTGGGTTCTAACCTGTTGCTG (site CTCGACACTCA)"
value = 1.6

[[record]]
sequence_chain = "ACTAGGACTTGGGTTCTAACCTGTTGCGG (site ACTAGGACTCC)"
value = 2.93


Which recombinant barcode read abundance (log10) value belongs to GACGATCCTTGGGTTCTAACCTGTTGCAT (site GGCGAACCTAT) ? 0.077

Returns the measured recombinant barcode read abundance (log10) for the input sequence. Input: ATTGCTCCTTGGGTTCTAACCTGTTGCTT (site ATTGCTCCTAA) 0.106

Request the reported recombinant barcode read abundance (log10) associated with AAGCCCTCTTGGGTTCTAACCTGTTGCTT (site AAGTCCTCTAA) 0.0167

Look up recombinant barcode read abundance (log10) for this sequence: CGCCTCACTTGGGTTCTAACCTGTTGCCT (site CGCCTCGCTAG) 0.166

# input sequence: CCGCCAGCTTGGGTTCTAACCTGTTGCCT (site CCGCCCGCTAG) ; wanted: its recombinant barcode read abundance (log10) 0.0231

Any idea what its recombinant barcode read abundance (log10) is? The sequence is TACGATACTTGGGTTCTAACCTGTTGCGT (site CTACGACCTCT) 0.0489
